Value source: paper PMC5708365

Reported IC50 values for the following compounds.
testedOn: G9a (Homo sapiens)
Sequence (Q96KQ7 whole entry): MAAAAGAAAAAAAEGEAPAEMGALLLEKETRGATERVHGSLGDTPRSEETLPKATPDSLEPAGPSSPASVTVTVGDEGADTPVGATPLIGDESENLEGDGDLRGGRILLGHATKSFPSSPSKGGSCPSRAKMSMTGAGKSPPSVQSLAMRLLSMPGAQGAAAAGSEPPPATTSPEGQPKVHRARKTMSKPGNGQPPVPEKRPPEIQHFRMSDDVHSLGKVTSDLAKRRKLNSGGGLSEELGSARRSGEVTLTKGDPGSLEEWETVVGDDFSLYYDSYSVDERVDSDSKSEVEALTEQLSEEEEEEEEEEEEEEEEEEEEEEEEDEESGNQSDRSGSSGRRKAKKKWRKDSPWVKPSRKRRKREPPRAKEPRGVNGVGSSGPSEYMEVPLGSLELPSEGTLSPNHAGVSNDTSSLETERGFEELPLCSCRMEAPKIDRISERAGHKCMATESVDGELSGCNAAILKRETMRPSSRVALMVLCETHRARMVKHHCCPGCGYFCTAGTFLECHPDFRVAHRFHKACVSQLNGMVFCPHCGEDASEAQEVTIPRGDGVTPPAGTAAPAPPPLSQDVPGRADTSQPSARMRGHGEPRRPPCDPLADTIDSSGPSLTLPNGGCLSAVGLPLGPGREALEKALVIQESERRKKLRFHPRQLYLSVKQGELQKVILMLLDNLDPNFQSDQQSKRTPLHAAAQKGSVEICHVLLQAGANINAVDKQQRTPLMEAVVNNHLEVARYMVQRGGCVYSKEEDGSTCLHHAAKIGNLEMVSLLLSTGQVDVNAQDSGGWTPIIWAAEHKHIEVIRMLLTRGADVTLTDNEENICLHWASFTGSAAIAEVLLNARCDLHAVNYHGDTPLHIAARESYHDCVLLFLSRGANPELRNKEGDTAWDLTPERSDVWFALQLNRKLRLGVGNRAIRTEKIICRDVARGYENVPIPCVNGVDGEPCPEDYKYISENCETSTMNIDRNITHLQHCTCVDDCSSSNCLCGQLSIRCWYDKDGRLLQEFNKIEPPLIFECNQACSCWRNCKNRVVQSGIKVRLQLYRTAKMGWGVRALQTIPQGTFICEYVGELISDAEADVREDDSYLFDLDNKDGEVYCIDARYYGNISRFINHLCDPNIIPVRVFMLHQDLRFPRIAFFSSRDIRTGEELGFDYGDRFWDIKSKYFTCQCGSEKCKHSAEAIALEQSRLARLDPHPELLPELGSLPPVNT
measurementParameters: read-out: G9a IC50; SPA, 5 nM G9a, H3 1-25 peptide 0.8 μM, 3H-SAM 8 μM

compound: COc1cc2nc(N3CCCCC3)nc(NC3CCCN(Cc4ccccc4)C3)c2cc1OC (stereo not drawn)
IC50: ~1 µM
--
compound: COc1cc2nc(N3CCN(C)CC3)nc(NC3CCCN(Cc4ccccc4)C3)c2cc1OC (stereo not drawn)
IC50: ~1 µM
--
compound: COc1cc2nc(N3CCN(c4ccccn4)CC3)nc(NC3CCN(Cc4ccccc4)C3)c2cc1OC (stereo not drawn)
IC50: ~10 µM
